# test.protocol: Blood Brain Barrier penetration (brain-to-plasma distribution)
# Assay type: in vivo
# experimental.parameters: mouse, brain/plasma, sc; male CD mice, 10 mg/kg subcutaneous, 120 min; read-out: Brain/Plasma ratio after 120 minutes

{"compound": "C[C@@H]1CN(Cc2ncccn2)C[C@H]1c1cn2c(C3CCOCC3)ncc2c(=O)[nH]1 (single isomer, unassigned)", "Kp at 2 h": 0.03}

* * *

# test.protocol: Pharmacokinetics of single oral and IV dose in Sprague Dawley rats
# Format: in vivo
# experimental.parameters: rat, blood; Sprague Dawley rats, 10 mg/kg oral
parameter: AUC(0-t) (ng·h/mL)

{"molecule": "C[C@@H]1CN(Cc2ncccn2)C[C@H]1c1cn2c(C3CCOCC3)ncc2c(=O)[nH]1 (single isomer, unassigned) [Compound P3.1]", "experimental.value": 4620}
